test system: mouse microsomal triglyceride transfer protein mRNA; assay: Antisense inhibition of mouse microsomal triglyceride transfer protein mRNA levels in primary hepatocytes, quantitative real-time PCR; assay type: cell-based; set-up: concentration or dose not given beside the values; conditions: averages from two experiments
Strand notation (5' to 3'): a small letter for the sugar, then the base; units joined by * are phosphorothioate-linked, units joined directly phosphodiester-linked; [ ] holds rarer units or linkages, { } end groups; capitals alone tell only the bases. e = 2'-O-(2-methoxyethyl) (MOE); [5mC] = 5-methylcytosine; d = 2'-deoxy (DNA)
outcome_measure: % INHIB (inhibition of mouse microsomal triglyceride transfer protein mRNA levels) (%)
Field: numeric (%). Do not append units.

The cases that follow already have their % INHIB (inhibition of mouse microsomal triglyceride transfer protein mRNA levels) on record.
144467 (eG*e[5mC]*eT*e[5mC]*e[5mC]*d[5mC]*dT*d[5mC]*dT*dG*d[5mC]*d[5mC]*dA*d[5mC]*dA*eT*e[5mC]*e[5mC]*eA*eG; antisense) [compound 144467] | 0
144485 (e[5mC]*eT*e[5mC]*eT*eG*dA*dT*dG*dT*d[5mC]*dG*dT*dT*dG*d[5mC]*eT*eT*eG*e[5mC]*eA; antisense) [compound 144485] | 50
144490 (eA*e[5mC]*eG*eA*eT*dT*d[5mC]*dT*dG*dG*dT*dG*dG*dT*dA*eT*eA*eT*e[5mC]*e[5mC]; antisense) [compound 144490] | 23
144483 (e[5mC]*eA*eG*eA*eG*dG*dT*dG*dA*d[5mC]*dG*dG*d[5mC]*dA*dT*e[5mC]*e[5mC]*eA*e[5mC]*e[5mC]; antisense) [compound 144483] | 22
144509 (eA*e[5mC]*eT*eG*eT*dG*d[5mC]*dT*d[5mC]*dT*d[5mC]*dA*dG*dA*dG*eA*eG*e[5mC]*eA*eA; antisense) [compound 144509] | 0

Please find the next substance below.
Form field: reported % INHIB (inhibition of mouse microsomal triglyceride transfer protein mRNA levels) of 144475 (eT*eG*eG*eA*eA*dT*dA*dA*dG*d[5mC]*dT*dA*dG*d[5mC]*d[5mC]*eA*eA*eG*e[5mC]*e[5mC]; antisense) [compound 144475]
18
